target: Phosphatidylinositol 4,5-bisphosphate 3-kinase catalytic subunit gamma isoform (Homo sapiens, UniProt P48736); assay: Inhibition of PI3Kgamma (unknown origin)
Sequence (P48736 whole entry, canonical isoform): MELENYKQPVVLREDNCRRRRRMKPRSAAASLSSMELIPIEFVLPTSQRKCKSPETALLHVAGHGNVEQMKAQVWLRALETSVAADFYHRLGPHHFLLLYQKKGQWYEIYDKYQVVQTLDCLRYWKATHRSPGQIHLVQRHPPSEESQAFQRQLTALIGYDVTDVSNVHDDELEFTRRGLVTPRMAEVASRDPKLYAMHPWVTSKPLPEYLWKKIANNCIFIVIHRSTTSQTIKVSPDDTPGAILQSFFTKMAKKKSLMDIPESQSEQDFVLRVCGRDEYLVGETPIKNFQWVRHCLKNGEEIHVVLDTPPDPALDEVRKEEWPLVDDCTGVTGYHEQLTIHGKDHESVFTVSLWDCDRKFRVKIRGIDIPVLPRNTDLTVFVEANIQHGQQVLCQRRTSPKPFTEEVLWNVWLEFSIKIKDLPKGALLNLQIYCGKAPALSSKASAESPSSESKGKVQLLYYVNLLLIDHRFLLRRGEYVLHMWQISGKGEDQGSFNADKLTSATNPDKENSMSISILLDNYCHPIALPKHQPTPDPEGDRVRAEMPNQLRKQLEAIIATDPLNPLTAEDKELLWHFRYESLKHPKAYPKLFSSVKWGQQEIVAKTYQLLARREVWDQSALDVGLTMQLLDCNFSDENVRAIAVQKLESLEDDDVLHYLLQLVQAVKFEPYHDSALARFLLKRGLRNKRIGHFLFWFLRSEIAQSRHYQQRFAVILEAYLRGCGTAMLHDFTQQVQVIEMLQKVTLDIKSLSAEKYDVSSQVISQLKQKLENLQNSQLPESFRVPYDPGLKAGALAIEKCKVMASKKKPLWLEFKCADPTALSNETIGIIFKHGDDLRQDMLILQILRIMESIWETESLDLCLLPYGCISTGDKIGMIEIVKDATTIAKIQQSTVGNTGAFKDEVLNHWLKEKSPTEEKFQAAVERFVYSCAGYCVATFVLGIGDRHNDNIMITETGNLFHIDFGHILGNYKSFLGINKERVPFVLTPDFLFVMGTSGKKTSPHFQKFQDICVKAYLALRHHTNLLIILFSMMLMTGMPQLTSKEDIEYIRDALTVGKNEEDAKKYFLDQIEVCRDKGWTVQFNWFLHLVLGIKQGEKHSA
For each record, write down the corresponding pIC50.
Answers are plain numbers, as −log10 of the molar value.

Worked examples, 3 compounds total:
COc1ccc(-c2cc(CNc3ccc(S(=O)(=O)Nc4nnc(C)s4)cc3)cc(C(=O)NC(CO)CO)c2)cn1 ... 7.60
COc1ccc(-c2cc(CNc3ccc(S(=O)(=O)Nc4nnc(C)s4)cc3)cc(C(=O)O)c2)cn1 ... 8.59
Cc1nnc(NS(=O)(=O)c2ccc(NCc3cc(C(=O)O)cc(-c4ccc5c(c4)OCCO5)c3)cc2)s1 ... 8.70

Please examine the following record next.
Given item `COc1ccc(-c2cc(CNc3ccc(S(=O)(=O)Nc4nnc(C)s4)cc3)cc(C(=O)NCCc3ccccc3F)c2)cn1` , the value recorded as its pIC50 is 8.36

###

target: Phosphatidylinositol 4,5-bisphosphate 3-kinase catalytic subunit beta isoform (Homo sapiens, UniProt P42338); assay: Inhibition of PI3Kbeta (unknown origin)
Sequence (P42338 whole entry, canonical isoform): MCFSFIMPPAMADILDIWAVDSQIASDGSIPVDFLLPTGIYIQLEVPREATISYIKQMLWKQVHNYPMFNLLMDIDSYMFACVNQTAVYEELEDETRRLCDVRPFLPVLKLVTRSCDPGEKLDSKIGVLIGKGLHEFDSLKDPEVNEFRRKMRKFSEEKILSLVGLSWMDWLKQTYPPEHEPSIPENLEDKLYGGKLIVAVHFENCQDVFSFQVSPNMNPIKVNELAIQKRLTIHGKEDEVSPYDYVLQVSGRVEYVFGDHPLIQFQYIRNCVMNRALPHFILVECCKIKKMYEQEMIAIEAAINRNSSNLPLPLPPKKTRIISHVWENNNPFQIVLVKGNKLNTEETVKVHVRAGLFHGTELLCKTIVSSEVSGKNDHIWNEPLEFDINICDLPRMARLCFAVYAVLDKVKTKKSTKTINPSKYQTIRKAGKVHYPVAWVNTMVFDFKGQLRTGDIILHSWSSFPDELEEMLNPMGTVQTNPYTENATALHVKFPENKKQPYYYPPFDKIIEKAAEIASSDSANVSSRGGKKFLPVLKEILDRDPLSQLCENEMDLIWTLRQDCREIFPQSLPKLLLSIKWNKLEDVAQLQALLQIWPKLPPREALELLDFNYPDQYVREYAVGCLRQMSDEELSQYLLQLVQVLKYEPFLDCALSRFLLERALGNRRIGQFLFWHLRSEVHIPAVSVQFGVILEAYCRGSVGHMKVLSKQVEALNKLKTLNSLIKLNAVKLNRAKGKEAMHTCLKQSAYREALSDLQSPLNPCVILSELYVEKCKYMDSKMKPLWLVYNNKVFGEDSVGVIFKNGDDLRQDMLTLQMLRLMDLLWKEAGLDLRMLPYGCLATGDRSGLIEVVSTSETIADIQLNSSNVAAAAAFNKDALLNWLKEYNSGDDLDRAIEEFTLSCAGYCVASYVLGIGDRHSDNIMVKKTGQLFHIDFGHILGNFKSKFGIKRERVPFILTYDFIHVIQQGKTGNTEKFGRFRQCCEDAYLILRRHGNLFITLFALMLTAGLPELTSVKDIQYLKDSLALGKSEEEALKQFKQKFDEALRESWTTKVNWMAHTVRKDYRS
measured-endpoint: IC50 (nM)
One number for each entry, in nM.

COc1ccc(-c2cc(CNc3ccc(S(=O)(=O)Nc4nnc(C)s4)cc3)cc(C(=O)NCCc3ccccc3F)c2)cn1 ... 700
COc1ccc(-c2cc(CNc3ccc(S(=O)(=O)Nc4nnc(C)s4)cc3)cc(C(=O)NCCC(C)C)c2)cn1 ... 398
COc1ccc(-c2cccc(CNc3ccc(S(=O)(=O)Nc4nnc(C)s4)cc3)c2)cn1 ... 765

Kindly note the recorded IC50 for `Cc1nnc(NS(=O)(=O)c2ccc(NCc3cc(C(=O)O)cc(-c4ccc5c(c4)OCCO5)c3)cc2)s1` , which is 126
